For each record, write down the corresponding abundance fitness.
B1: Transcriptional repressor p66-beta, residues 415 to 455; numbered along this chain, Q8WXI9 (parent)
chain: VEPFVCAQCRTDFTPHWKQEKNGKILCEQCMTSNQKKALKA

# Variants of: B1
# ASSAY_REMARKS: abundance fitness (aPCA) (normalised: wild type 0, dead -1); higher = more abundant; growth selection in yeast, the domain comes from the species named
# SETTINGS: Homo sapiens
One number for each entry.

Known results for variants:
A7V 0.363
V1D -0.002
L39D -0.558
N34Y -0.287
W17S 0.127

Answer for every listed entry: what is its abundance fitness? The entries follow.
1. A38G
2. P3S

-0.213
0.398
